Each entry below lists one item and its recorded pKi value.
Biological target: T1, rat MASP-2cf CCP1-CCP2-SP (rat, UniProt Q9JJS8 298-685)
T1 construct: range 298-685; Mw 42309 Da; also called rat MASP-2 catalytic fragment
T1 sequence (Q9JJS8 other isoform, or with tags, fused parts or gaps limits assumed, form in doubt): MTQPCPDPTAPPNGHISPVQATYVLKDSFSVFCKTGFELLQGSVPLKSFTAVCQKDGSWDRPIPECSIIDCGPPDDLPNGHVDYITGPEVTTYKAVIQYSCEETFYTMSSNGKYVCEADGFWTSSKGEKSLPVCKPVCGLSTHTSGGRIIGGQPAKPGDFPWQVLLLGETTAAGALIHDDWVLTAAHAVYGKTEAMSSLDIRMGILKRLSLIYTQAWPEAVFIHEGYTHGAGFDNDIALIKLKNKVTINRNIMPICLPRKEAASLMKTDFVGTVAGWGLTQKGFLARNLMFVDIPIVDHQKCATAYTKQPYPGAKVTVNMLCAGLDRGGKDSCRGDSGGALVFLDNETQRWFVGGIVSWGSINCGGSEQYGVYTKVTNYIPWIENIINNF
Assay: enzyme inhibition, tight-binding fit
Where no end group is shown, it is not given here.
Expect pKi as a plain number equal to -log10 of the molar concentration.

{"columns": ["binder", "endpointResult"],
 "data": [
  ["EVO21c (designed binder, not fully specified; cysteine pairing not given here, Modified TFPI-D2 Kunitz domain; made as m1) KPDFCFLEEDPGPCRALKRRYFYNNQTKQCERFGYGGCFGNMNNFVTLEECKNICEDG", 11.15],
  ["EVO222 (designed binder, not fully specified; cysteine pairing not given here, Modified TFPI-D2 Kunitz domain; made as m1) KPDFCFLENDPGLCRAAAVRYFYNNQTKQCERFYYGGCLGNMNNFVTLEECKNICEDG", 9.57],
  ["EVO25 (designed binder, not fully specified; cysteine pairing not given here, Modified TFPI-D2 Kunitz domain; made as m1) KPDFCFLENDPGPCRALKRRYFYNNQTKQCERFYYGGCFGNMNNFETLEECKNICEDG", 9.05]
]}

[Q] Fill in: pKi of EVO224 (designed binder, not fully specified; cysteine pairing not given here, Modified TFPI-D2 Kunitz domain; made as m1) KPDFCFLENDPGVCRALAVRYFYNNQTKQCERFYYGGCLGNMNNFVTLEECKNICEDG is ___
[A] 9.85

[Q] Fill in: pKi of EVO223 (designed binder, Modified TFPI-D2 Kunitz domain; made as m1) KPDFCFLENDPGPCRAAAVRYFYNNQTKQCERFYYGGCLGNMNNFVTLEECKNICEDG is ___
[A] 10.05

[Q] Fill in: pKi of EVO2 (designed binder, not fully specified; ends and bridges not checked, Modified Kunitz domain TFPI-D2 of human TFPI-1; recombinant from E. coli, freed from a His6-S100A4 fusion by TEV protease; also called TFMI-2b) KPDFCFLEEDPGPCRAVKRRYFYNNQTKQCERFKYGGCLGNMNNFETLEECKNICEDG is ___
[A] 9.62

[Q] Fill in: pKi of EVO24 (designed binder, not fully specified; cysteine pairing not given here, Modified TFPI-D2 Kunitz domain; made as m1) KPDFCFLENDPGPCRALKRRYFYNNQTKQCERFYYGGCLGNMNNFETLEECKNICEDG is ___
[A] 9.44
